experiment: Cytotoxicity against mouse EAC cells assessed as non-viable cells at 25 ug/ml after 2 hrs by trypan blue exclusion; type: functional, Ehrlich
Reported Activity values for the following compounds.
Answer with a number only, understood to be in %.

# annotated cases, reported Activity shown
>>> measured_value("N=c1c2c([nH]c(=S)n1-c1ccccc1)N(c1ccc(S(N)(=O)=O)cc1)C1=C(C(=O)CCC1)C2c1ccc(Cl)cc1Cl (centres undefined)")
30
>>> measured_value("N#CC1=C(NC(=S)Nc2ccc(Cl)cc2)N(c2ccc(S(N)(=O)=O)cc2)C2=C(C(=O)CCC2)C1c1ccc(Cl)cc1Cl (centres undefined)")
60
>>> measured_value("NS(=O)(=O)c1ccc(N2C3=C(C(=O)CCC3)C(c3ccc(Cl)cc3Cl)c3c2[nH]c(=S)[nH]c3=S)cc1 (centres undefined)")
30

Challenge: Given the entry N#CC1=C(NC(=S)Nc2ccccc2)N(c2ccc(S(N)(=O)=O)cc2)C2=C(C(=O)CCC2)C1c1ccc(Cl)cc1Cl (centres undefined) , report its measured Activity.
Response given: 50

###

experiment: Cytotoxicity against mouse EAC cells assessed as non-viable cells at 25 ug/ml after 2 hrs by trypan blue exclusion; type: functional, Ehrlich
Attribute Measured: Activity (%)
State the answer as a number, implicitly in %.

>>> measured_value("N#CC1=C(NC(N)=O)N(c2ccc(S(N)(=O)=O)cc2)C2=C(C(=O)CCC2)C1c1ccc(Cl)cc1Cl (stereo unspecified)")
35
>>> measured_value("N#CC1=C(NC(=S)Nc2ccc(Br)cc2)N(c2ccc(S(N)(=O)=O)cc2)C2=C(C(=O)CCC2)C1c1ccc(Cl)cc1Cl (stereo unspecified)")
50

Challenge: Form field: reported Activity of COc1cccc2c1C(=O)c1c(O)c3c(c(O)c1C2=O)C[C@@](O)(C(=O)CO)C[C@@H]3O[C@H]1C[C@H](N)[C@H](O)[C@H](C)O1 [DOXORUBICIN]
Response given: 32

Challenge: # query: Activity of entry N#CC1=C(NC(=O)CCC(=O)O)N(c2ccc(S(N)(=O)=O)cc2)C2=C(C(=O)CCC2)C1c1ccc(Cl)cc1Cl (stereo unspecified)
Response given: 35

###

assay: Cytotoxicity against mouse EAC cells assessed as non-viable cells at 10 ug/ml after 2 hrs by trypan blue exclusion; format: functional, Ehrlich
I'd appreciate it if you could label each record using Activity and these ranges: zone 1 = under 20%, zone 2 = from 20% up to 40%, zone 3 = 40% and over

Challenge: Just checking, what class would you give Nc1nc(=O)[nH]c2c1C(c1ccc(Cl)cc1Cl)C1=C(CCCC1=O)N2c1ccc(S(N)(=O)=O)cc1 (stereo not given) here?
Response given: zone 3

Challenge: Hi, small favor: classify NS(=O)(=O)c1ccc(N2C3=C(C(=O)CCC3)C(c3ccc(Cl)cc3Cl)c3c2[nH]c(=S)[nH]c3=S)cc1 (stereo not given) by its Activity when you get a moment.
Response given: zone 1

Challenge: Returns: class label. Input: N#CC1=C(NC(=S)Nc2ccc(Br)cc2)N(c2ccc(S(N)(=O)=O)cc2)C2=C(C(=O)CCC2)C1c1ccc(Cl)cc1Cl (stereo not given)
Response given: zone 3

Challenge: Bin? Nc1nc(=S)[nH]c2c1C(c1ccc(Cl)cc1Cl)C1=C(CCCC1=O)N2c1ccc(S(N)(=O)=O)cc1 (stereo not given)
Response given: zone 2

Challenge: Assign a bin to N#CC1=C(NS(=O)(=O)c2ccc(Br)cc2)N(c2ccc(S(N)(=O)=O)cc2)C2=C(C(=O)CCC2)C1c1ccc(Cl)cc1Cl (stereo not given)
Response given: zone 3
